recorded metric: CO2 permeability (Barrer)

*C(=C(*)c1ccc2c(ccc3ccccc32)c1)c1ccccc1 (repeat unit)	5300

1: *Oc1ccc(C(C)(C)c2ccc(Oc3ccc(S(=O)(=O)c4ccc(*)c5ccccc45)cc3)cc2)cc1 (repeat unit)
2: *c1ccc2c(c1)C(=O)N(c1ccc(Oc3ccc(N4C(=O)c5ccc(-c6nc7ccc(Cc8ccc9nc(*)oc(=O)c9c8)cc7c(=O)o6)cc5C4=O)cc3)cc1)C2=O (repeat unit)
3: *c1cc(C(c2ccc(O)c(N3C(=O)c4ccc(C(c5ccc6c(c5)C(=O)N(*)C6=O)(C(F)(F)F)C(F)(F)F)cc4C3=O)c2)(C(F)(F)F)C(F)(F)F)ccc1O (repeat unit)
4: *CC(*)c1ccc(C([Si](C)(C)C)[Si](C)(C)C)cc1 (repeat unit)
Ask | List items by CO2 permeability in falling order. Returns: the labels listed in the requested order.
Reply | 4, 3, 1, 2

Provenance of the data: a polymer gas permeability compilation
